- Measurement target: HLA-DRB1*0701 (Homo sapiens, UniProt P01903+P01911, A100R/A102G/A103Q/D57E/D86V/E43K/F76Y/K127E/L162R/M171V/P40G/Q125H/Q99D/R33Q/R42Y/R54Q/S133A/S66F/T210M/V115G/Y107V/Y59L/Y89S)
- Test summary: Peptide-MHCII competition binding assay
- Test context: competition ELISA, pH 5.9, peptide 90.000nM – 0.9nM, HLA-DRB1 30 nM, biotinylated peptide 15nM, duplicate wells; ratios below 10 = good binding; reference peptide PVDLHAFLSQAVFS
Lab note: compare Ratio IC50 DRB1*0701 with 1, writing Criterion met if less and Criterion not met if equal or more.

Consider the worked cases shown below.
> print(dat)
                            sequence.record              label
1  INGYIMDTLPGLVMAQDQRI [P1940-1959, 20-mer FVIII peptide, A3 domain]  Criterion not met
2         PPIIARYIRLHPTHYSIRST [P2161-2180]      Criterion met
3  YDTVVITLKNMASHPVSLHA [P100-119, 20-mer FVIII peptide, A1 domain]  Criterion not met
4  ATRRYYLGAVELSWDYMQSD [P20-39, 20-mer FVIII peptide, A1 domain]      Criterion met
5  SLYISQFIIMYSLDGKKWQT [P2114-2133, 20-mer FVIII peptide, C1 domain]      Criterion met

Q) Is Ratio IC50 DRB1*0701 strictly under 1 for the entry VHSIFLEGHTFLVRNHRQAS [P285-304, 20-mer FVIII peptide, A1 domain] ?
A) Criterion not met

Q) Is Ratio IC50 DRB1*0701 strictly under 1 for the entry TQGVKSLLTSMYVKEFLISS [P2264-2283, 20-mer FVIII peptide, C2 domain] ?
A) Criterion met

Q) Is Ratio IC50 DRB1*0701 strictly under 1 for the entry KKEEYKMALYNLYPGVFETV [P1986-2005, 20-mer FVIII peptide, A3 domain] ?
A) Criterion met

Q) Is Ratio IC50 DRB1*0701 strictly under 1 for the entry KARLHLQGRSNAWRPQVNNP [P2226-2245, 20-mer FVIII peptide, C2 domain] ?
A) Criterion met

Q) Is Ratio IC50 DRB1*0701 strictly under 1 for the entry LLTRYLRIHPQSWVHQIALR [P2320-2339, 20-mer FVIII peptide, C2 domain] ?
A) Criterion met

Q) Is Ratio IC50 DRB1*0701 strictly under 1 for the entry KLARLHYSGSINAWSTKEPF [P2068-2087, 20-mer FVIII peptide, C1 domain] ?
A) Criterion met

Q) Is Ratio IC50 DRB1*0701 strictly under 1 for the entry LGQFLLFCHISSHQHDGMEA [P322-341, 20-mer FVIII peptide, A1 domain] ?
A) Criterion met

Q) Is Ratio IC50 DRB1*0701 strictly under 1 for the entry LSHVDLVKDLNSGLIGALLV [P178-197, 20-mer FVIII peptide, A1 domain] ?
A) Criterion met

* * *

- Measurement target: HLA-DRB1*0301 (Homo sapiens, UniProt P01903+P01911, A100K/A102G/A103R/A169T/F55Y/I96L/K41T/L162R/M171V/P40S/Q125H/Q178H/Q39Y/R42S/S66N/T106N/T262R/W38E/Y61H)
- Test summary: Peptide-MHCII competition binding assay
- Test context: competition ELISA, pH 5.9, peptide 90.000nM – 0.9nM, HLA-DRB1 30 nM, biotinylated peptide 15nM, duplicate wells; ratios below 10 = good binding; reference peptide SFLLTDLINRRTPRVDGQ
- Protocol: Quantitative peptide-MHCII competition binding assays were carried out to determine binding avidities of the 18 20-mer FVIII peptides to 6 HLA-DRB1. Data are presented as ratio between reference peptide IC50/FVIII-peptide IC50 tested. […] ELISA stopping solution (0.5M H2SO4) was added and then read on a FLUOstar OPTIMA fluorometer. Sigmoidal binding curves were simulated and IC50 values calculated for the FVIII peptides, based on their competition with the reference peptides for each HLA-DRB1. […]
Examples of sequences with documented Ratio IC50 DRB1*0301 follow.
Quick one: just the number, no unit, thanks!

> print(dat)
                            sequence.record  experimental.result
1  TQGVKSLLTSMYVKEFLISS [P2264-2283, 20-mer FVIII peptide, C2 domain]                   17
2  DHLFNIAKPRPPWMGLLGPT [P75-94, 20-mer FVIII peptide, A1 domain]                   40
3  ATRRYYLGAVELSWDYMQSD [P20-39, 20-mer FVIII peptide, A1 domain]                  850

Now for the sequence whose Ratio IC50 DRB1*0301 we want.
Value of Ratio IC50 DRB1*0301 reported for the sequence VHSIFLEGHTFLVRNHRQAS [P285-304, 20-mer FVIII peptide, A1 domain] is 58
